- System: 616215-338-R-J1-PDC complex spheroid viability
- ASSAY_METHOD_TEXT: Anticancer human tumor 616215-338-R-J1-PDC patient-derived colon adenocarcinoma cell line growth inhibition [RAS]
- PROTOCOL_CONDITIONS: curve of first compound; second compound 0.0949 µM
REPORTED_METRIC: IC50 (nM)
Give bare numbers, in nM.

Example results:
>>> observed("CC1(O)CCCC1n1c(=O)c(C(F)F)cc2cnc(NC3CCN(S(C)(=O)=O)CC3)nc21 (stereo not drawn) + CCn1c(-c2cccnc2C(C)OC)c2c3cc(ccc31)N1CCOC(CC(NC(=O)C(C(C)C)N(C)C(=O)C3(F)CCN(C(=O)C#CC(C)(C)N(C)C)CC3)C(=O)N3CCCC(N3)C(=O)OCC(C)(C)C2)C1")
1180
>>> observed("CCc1c2c(nc3ccc(O)cc13)-c1cc3c(c(=O)n1C2)COC(=O)[C@]3(O)CC + CCn1c(-c2cccnc2C(C)OC)c2c3cc(ccc31)N1CCOC(CC(NC(=O)C(C(C)C)N(C)C(=O)C3(F)CCN(C(=O)C#CC(C)(C)N(C)C)CC3)C(=O)N3CCCC(N3)C(=O)OCC(C)(C)C2)C1")
8.04
>>> observed("CC1(C)CCC(Nc2ncc(C(F)(F)F)c(-c3c[nH]c4c(P(C)(C)=O)c(C#N)ccc34)n2)CN1 (stereo not drawn) + CCn1c(-c2cccnc2C(C)OC)c2c3cc(ccc31)N1CCOC(CC(NC(=O)C(C(C)C)N(C)C(=O)C3(F)CCN(C(=O)C#CC(C)(C)N(C)C)CC3)C(=O)N3CCCC(N3)C(=O)OCC(C)(C)C2)C1")
9.25

The record that follows has no IC50 shown yet.
Look at this compound and give its reported IC50. Nc1ccn(C2OC(CO)C(O)C2(F)F)c(=O)n1 (stereo not drawn) + CCn1c(-c2cccnc2C(C)OC)c2c3cc(ccc31)N1CCOC(CC(NC(=O)C(C(C)C)N(C)C(=O)C3(F)CCN(C(=O)C#CC(C)(C)N(C)C)CC3)C(=O)N3CCCC(N3)C(=O)OCC(C)(C)C2)C1
10.1

* * *

I'd appreciate it if you could supply viability, T/C values for the items below.
- Test system: 616215-338-R-J1-PDC complex spheroid viability
- ASSAY_METHOD_TEXT: Anticancer human tumor 616215-338-R-J1-PDC cell line growth inhibition [RAS];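 also: spheroids exposed to agents for seven days before viability readout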;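 as to viability, T/C: 100% = DMSO vehicle control viability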
- PROTOCOL_CONDITIONS: second compound 0.003 µM; first compound 3.16 µM; stronger effect = lower value
Answers are plain numbers, in %.

Example results:
>>> observed("CC1(O)CCCC1n1c(=O)c(C(F)F)cc2cnc(NC3CCN(S(C)(=O)=O)CC3)nc21 (centres undefined) + CCn1c(-c2cc(N3CCN(C)CC3)cnc2C(C)OC)c2c3cc(ccc31)-c1csc(n1)CC(NC(=O)C1CC1C)C(=O)N1CCCC(N1)C(=O)OCC(C)(C)C2")
38.9
>>> observed("Cc1nc(N2CCC3(CC2)COC(C)C3N)c(CO)nc1Sc1ccnc(N)c1Cl (centres undefined) + CCn1c(-c2cccnc2C(C)OC)c2c3cc(ccc31)N1CCOC(CC(NC(=O)C(C(C)C)N(C)C(=O)C3(F)CCN(C(=O)C#CC(C)(C)N(C)C)CC3)C(=O)N3CCCC(N3)C(=O)OCC(C)(C)C2)C1")
79.6
>>> observed("NC1c2ccccc2OC12CCN(c1cnc3c(N4CCCc5ncccc54)n[nH]c3n1)CC2 (centres undefined) + CCn1c(-c2cc(N3CCN(C)CC3)cnc2C(C)OC)c2c3cc(ccc31)-c1csc(n1)CC(NC(=O)C1CC1C)C(=O)N1CCCC(N1)C(=O)OCC(C)(C)C2")
35.2

The record that follows has no viability, T/C shown yet.
Look at this molecule and give its reported viability, T/C. CC(C)NCC(C(=O)N1CCN(c2ncnc3c2C(C)CC3O)CC1)c1ccc(Cl)cc1 (centres undefined) + CCn1c(-c2cccnc2C(C)OC)c2c3cc(ccc31)N1CCOC(CC(NC(=O)C(C(C)C)N(C)C(=O)C3(F)CCN(C(=O)C#CC(C)(C)N(C)C)CC3)C(=O)N3CCCC(N3)C(=O)OCC(C)(C)C2)C1
97.4
